tested on: Bacillus subtilis DB104 (SP-AmyQ fusion secretion); experiment: AmyQ secretion efficiency, weighted average sort bin (1 = best secretion, 10 = worst) (bin number (weighted average, 1-10)); higher = lower secretion efficiency
Experimental endpoint: AmyQ secretion efficiency

[[record]]
primary_sequence = "MKKRLIAPMLLSAASLAFFAMSGSKQAAAY"
experimental_endpoint = "AmyQ secretion efficiency"
experimental_result = 3.82

[[record]]
primary_sequence = "MKKWIYVVLVLSIAGIGGFSAFGPVTAVHAASS"
experimental_endpoint = "AmyQ secretion efficiency"
experimental_result = 2.96

[[record]]
primary_sequence = "MKKSGSCQKTLAVILSGVALTQLS"
experimental_endpoint = "AmyQ secretion efficiency"
experimental_result = 4.76

[[record]]
primary_sequence = "MTKLKMLSMGKRRTASLFIFSSQALAVQY"
experimental_endpoint = "AmyQ secretion efficiency"
experimental_result = 7.8

[[record]]
primary_sequence = "MKKSQYFIVFICFFVLFSSHPDEAAAADS"
experimental_endpoint = "AmyQ secretion efficiency"
experimental_result = 4.15

[[record]]
primary_sequence = "MRMLWRGQKSCGTYLTLAPCAQAAEP"
experimental_endpoint = "AmyQ secretion efficiency"
experimental_result = 7.51

[[record]]
primary_sequence = "MRNLTKTSLLLAGLCTAAQMVFVTHASAAKR"
experimental_endpoint = "AmyQ secretion efficiency"
experimental_result = 2.59

[[record]]
primary_sequence = "MKKLLAAGIIGLLTVFIAVPSFAAEK"
experimental_endpoint = "AmyQ secretion efficiency"
experimental_result = 2.33

[[record]]
primary_sequence = "MLKKKWMVGLLAGCLAAGRKKKKKAFATEN"
experimental_endpoint = "AmyQ secretion efficiency"
experimental_result = 7.31

[[record]]
primary_sequence = "MKKLLAAGIIGLLTVSIASPIFAAEK"
experimental_endpoint = "AmyQ secretion efficiency"
experimental_result = 1.99

[[record]]
primary_sequence = "MLKGIIRFLLVSFVLFFALSTGITGVQAAPA"
experimental_endpoint = "AmyQ secretion efficiency"
experimental_result = 2.22

[[record]]
primary_sequence = "MKSKWMSGLLLVAVGTQVMVHAGET"
experimental_endpoint = "AmyQ secretion efficiency"
experimental_result = 5.76

[[record]]
primary_sequence = "MGLGKKLSVAVAASFMSLSISLPVQAAEG"
experimental_endpoint = "AmyQ secretion efficiency"
experimental_result = 1.35

[[record]]
primary_sequence = "MKLSVKIAGVLTVAAAAMTAKMYATVKGN"
experimental_endpoint = "AmyQ secretion efficiency"
experimental_result = 6.87

